Origin of values: patent US11623919B2

Target Entity: P2X7 receptor (Rattus norvegicus, UniProt Q64663)
Construct: rP2X7 (IC50; nM); other: rP2X7; HEK-293 cells stably transfected with P2X7 receptor, Bz-ATP at EC80, Fluo-8 NW; potency
Test Details: Screen Quest Fluo-8 No Wash Calcium Assay (Bz-ATP evoked Ca2+ influx, FLIPR)
Assay type: cell-based
Experimental Parameters: rP2X7; HEK-293 cells stably transfected with P2X7 receptor, Bz-ATP at EC80, Fluo-8 NW; potency ranges A-D

>  <Compound>
O=c1snc(Cc2c(F)cccc2Cl)n1CC1CCCCC1 [Example 140]

>  <Target Entity>
P2X7 receptor (Rattus norvegicus, UniProt Q64663)

>  <IC50>
200 to 1000 nM

$$$$
>  <Compound>
O=c1onc(Cc2ccccc2Cl)n1CC1CCCCC1 [Example 117]

>  <Target Entity>
P2X7 receptor (Rattus norvegicus, UniProt Q64663)

>  <IC50>
< 200 nM

$$$$
>  <Compound>
O=c1onc(Cc2c(F)cccc2Cl)n1Cc1ccc(C(F)(F)F)cc1 [Example 63]

>  <Target Entity>
P2X7 receptor (Rattus norvegicus, UniProt Q64663)

>  <IC50>
1000 to 10000 nM

$$$$
>  <Compound>
CCCn1c(Cc2c(F)cccc2Cl)noc1=O [Example 176]

>  <Target Entity>
P2X7 receptor (Rattus norvegicus, UniProt Q64663)

>  <IC50>
> 10000 nM

$$$$
>  <Compound>
O=c1onc(Cc2c(F)cccc2Cl)n1CC1CC2CCC1C2 (stereo not shown) [Example 88]

>  <Target Entity>
P2X7 receptor (Rattus norvegicus, UniProt Q64663)

>  <IC50>
< 200 nM

$$$$
>  <Compound>
O=c1onc(CC2CCC(F)(F)CC2)n1Cc1ccc(C(F)(F)F)o1 [Example 168]

>  <Target Entity>
P2X7 receptor (Rattus norvegicus, UniProt Q64663)

>  <IC50>
200 to 1000 nM

$$$$
>  <Compound>
Cc1cc(F)ccc1Cn1c(CC2CCC(F)(F)CC2)noc1=O [Example 171]

>  <Target Entity>
P2X7 receptor (Rattus norvegicus, UniProt Q64663)

>  <IC50>
200 to 1000 nM

$$$$
>  <Compound>
O=c1onc(Cc2cccc(C(F)(F)F)c2Cl)n1Cc1ccc(F)cc1 [Example 72]

>  <Target Entity>
P2X7 receptor (Rattus norvegicus, UniProt Q64663)

>  <IC50>
> 10000 nM

$$$$
>  <Compound>
O=c1onc(Cc2ccc(F)cc2)n1CC1CCC(F)(F)CC1 [Example 152]

>  <Target Entity>
P2X7 receptor (Rattus norvegicus, UniProt Q64663)

>  <IC50>
200 to 1000 nM

$$$$
>  <Compound>
O=c1onc(CN2CCOc3ccccc32)n1CC1CCCCC1 [Example 230]

>  <Target Entity>
P2X7 receptor (Rattus norvegicus, UniProt Q64663)

>  <IC50>
< 200 nM

$$$$

###

Target Entity: P2X7 receptor (Mus musculus, UniProt Q9Z1M0)
Construct: mP2X7 (IC50; nM); other: mP2X7; HEK-293 cells stably transfected with P2X7 receptor, Bz-ATP at EC80, Fluo-8 NW; potency
Sequence (Q9Z1M0 whole entry): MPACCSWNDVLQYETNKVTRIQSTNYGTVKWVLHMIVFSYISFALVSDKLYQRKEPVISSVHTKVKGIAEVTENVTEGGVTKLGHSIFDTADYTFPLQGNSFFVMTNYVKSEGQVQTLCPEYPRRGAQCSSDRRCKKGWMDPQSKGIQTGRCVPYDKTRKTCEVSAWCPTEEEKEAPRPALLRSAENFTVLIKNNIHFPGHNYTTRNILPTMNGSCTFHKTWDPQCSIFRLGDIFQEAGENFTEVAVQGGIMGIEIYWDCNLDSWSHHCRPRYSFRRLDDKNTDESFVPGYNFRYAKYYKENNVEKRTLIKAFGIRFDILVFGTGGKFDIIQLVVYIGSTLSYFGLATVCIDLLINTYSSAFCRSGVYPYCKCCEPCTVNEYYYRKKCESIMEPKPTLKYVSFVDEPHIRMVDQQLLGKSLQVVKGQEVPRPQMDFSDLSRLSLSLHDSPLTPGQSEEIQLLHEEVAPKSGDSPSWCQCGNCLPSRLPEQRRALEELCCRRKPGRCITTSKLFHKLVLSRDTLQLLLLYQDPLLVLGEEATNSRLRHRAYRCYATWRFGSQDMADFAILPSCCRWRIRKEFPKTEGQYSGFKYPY
Test Details: Screen Quest Fluo-8 No Wash Calcium Assay (Bz-ATP evoked Ca2+ influx, FLIPR)
Type: cell-based
Experimental Parameters: mP2X7; HEK-293 cells stably transfected with P2X7 receptor, Bz-ATP at EC80, Fluo-8 NW; potency ranges A-D
Attribute Measured: IC50

>  <Molecule>
O=c1onc(Cc2c(F)cccc2Cl)n1Cc1ccccc1C(F)(F)F [Example 23]

>  <Attribute Measured>
IC50

>  <Assay Value>
> 10000 nM

$$$$
>  <Molecule>
O=c1onc(Cc2c(F)cccc2Cl)n1CC1CCCCC1 [Example 82]

>  <Attribute Measured>
IC50

>  <Assay Value>
< 200 nM

$$$$
>  <Molecule>
O=c1onc(CCc2c(F)cccc2Cl)n1Cc1c(F)cccc1Cl [Example 144]

>  <Attribute Measured>
IC50

>  <Assay Value>
1000 to 10000 nM

$$$$
>  <Molecule>
O=c1onc(Cc2c(F)cccc2Cl)n1Cc1c(F)cccc1Cl [Example 18]

>  <Attribute Measured>
IC50

>  <Assay Value>
1000 to 10000 nM

$$$$
>  <Molecule>
O=c1onc(Cc2cccnc2)n1CC1CCCCC1 [Example 123]

>  <Attribute Measured>
IC50

>  <Assay Value>
1000 to 10000 nM

$$$$

###

Target Entity: P2X7 receptor (Mus musculus, UniProt Q9Z1M0)
Construct: mP2X7 (IC50; nM); other: mP2X7; HEK-293 cells stably transfected with P2X7 receptor, Bz-ATP at EC80, Fluo-8 NW; potency
Test Details: Screen Quest Fluo-8 No Wash Calcium Assay (Bz-ATP evoked Ca2+ influx, FLIPR)
Type: cell-based
Experimental Parameters: mP2X7; HEK-293 cells stably transfected with P2X7 receptor, Bz-ATP at EC80, Fluo-8 NW; potency ranges A-D

>  <Compound>
O=c1onc(CN2CCCCC2)n1Cc1ccc(F)cc1

>  <IC50>
> 10000 nM

$$$$
>  <Compound>
O=c1onc(Cc2ccc(F)cc2)n1Cc1cccc(C(F)(F)F)c1Cl

>  <IC50>
> 10000 nM

$$$$
>  <Compound>
O=c1onc(Cc2ccc(F)cc2F)n1CC1CCCCC1

>  <IC50>
200 to 1000 nM

$$$$
>  <Compound>
O=c1onc(Cc2ccccc2Cl)n1CC1CCCCC1

>  <IC50>
200 to 1000 nM

$$$$
>  <Compound>
O=c1onc(Cc2c(F)cccc2Cl)n1Cc1ccc(F)cc1F

>  <IC50>
1000 to 10000 nM

$$$$
>  <Compound>
Cc1cc(Cn2c(CC3CCC(F)(F)CC3)noc2=O)n(C)n1

>  <IC50>
200 to 1000 nM

$$$$
>  <Compound>
O=c1onc(Cc2ccc(F)cc2Cl)n1CC1CCCCC1

>  <IC50>
200 to 1000 nM

$$$$
>  <Compound>
O=c1onc(Cc2c(F)cccc2Cl)n1Cc1nccs1

>  <IC50>
> 10000 nM

$$$$
>  <Compound>
O=c1onc(Cc2c(F)cccc2Cl)n1Cc1ccncc1

>  <IC50>
> 10000 nM

$$$$
>  <Compound>
CC#CCn1c(Cc2c(F)cccc2Cl)noc1=O

>  <IC50>
> 10000 nM

$$$$
>  <Compound>
O=c1onc(CC2CCC(F)(F)CC2)n1Cn1ccc(C(F)(F)F)n1

>  <IC50>
1000 to 10000 nM

$$$$
>  <Compound>
CCCOCn1c(Cc2c(F)cccc2Cl)noc1=O

>  <IC50>
> 10000 nM

$$$$
>  <Compound>
O=c1onc(Cc2c(F)cccc2Cl)n1CC1CCCCO1 (centres unmarked)

>  <IC50>
1000 to 10000 nM

$$$$
>  <Compound>
O=c1onc(Cc2c(F)cccc2Cl)n1Cn1ccc(C(F)(F)F)n1

>  <IC50>
1000 to 10000 nM

$$$$
>  <Compound>
Cc1noc(C)c1Cc1noc(=O)n1CC1CCC(F)(F)CC1

>  <IC50>
1000 to 10000 nM

$$$$
>  <Compound>
O=c1onc(Cc2c(F)cccc2Cl)n1CC1CCC(F)CC1 (centres unmarked)

>  <IC50>
< 200 nM

$$$$
>  <Compound>
O=c1onc(Cc2c(F)cccc2Cl)n1Cc1cccc(C(F)(F)F)c1Cl

>  <IC50>
1000 to 10000 nM

$$$$
>  <Compound>
O=c1onc(CC2CCC(F)(F)C2)n1Cc1c(F)cccc1Cl (centres unmarked)

>  <IC50>
200 to 1000 nM

$$$$
>  <Compound>
Cc1ncccc1Cc1noc(=O)n1CC1CCC(F)(F)CC1

>  <IC50>
1000 to 10000 nM

$$$$
>  <Compound>
Cn1ccnc1Cn1c(Cc2c(F)cccc2Cl)noc1=O

>  <IC50>
> 10000 nM

$$$$

###

Target Entity: P2X7 receptor (Rattus norvegicus)
Construct: rP2X7 (IC50; nM); other: rP2X7; HEK-293 cells stably transfected with P2X7 receptor, Bz-ATP at EC80, Fluo-8 NW; potency
Sequence (Q64663 1-595): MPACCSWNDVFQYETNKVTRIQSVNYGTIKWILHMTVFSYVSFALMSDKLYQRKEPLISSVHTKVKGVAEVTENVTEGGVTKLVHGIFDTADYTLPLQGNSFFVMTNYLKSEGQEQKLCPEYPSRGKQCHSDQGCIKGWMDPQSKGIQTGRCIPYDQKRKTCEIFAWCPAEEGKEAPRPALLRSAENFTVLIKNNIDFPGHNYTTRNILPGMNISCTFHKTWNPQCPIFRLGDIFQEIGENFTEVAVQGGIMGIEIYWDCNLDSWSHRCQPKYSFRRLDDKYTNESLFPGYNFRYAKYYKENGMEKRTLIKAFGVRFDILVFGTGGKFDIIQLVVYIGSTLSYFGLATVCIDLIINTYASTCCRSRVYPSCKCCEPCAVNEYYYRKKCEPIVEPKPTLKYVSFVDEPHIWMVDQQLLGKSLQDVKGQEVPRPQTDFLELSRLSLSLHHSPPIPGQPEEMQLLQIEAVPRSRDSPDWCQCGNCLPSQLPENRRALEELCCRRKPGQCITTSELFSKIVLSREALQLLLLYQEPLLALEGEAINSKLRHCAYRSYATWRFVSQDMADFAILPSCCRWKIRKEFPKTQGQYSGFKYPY
Test Details: Screen Quest Fluo-8 No Wash Calcium Assay (Bz-ATP evoked Ca2+ influx, FLIPR)
Type: cell-based
Experimental Parameters: rP2X7; HEK-293 cells stably transfected with P2X7 receptor, Bz-ATP at EC80, Fluo-8 NW; potency ranges A-D
Below, each of the compounds is paired with its reported IC50 value.

>  <Compound>
Cc1noc(C)c1Cc1noc(=O)n1CC1CCCCC1 [Example 210]

>  <IC50>
200 to 1000 nM

$$$$
>  <Compound>
O=c1onc(Cc2c(F)cccc2Cl)n1Cc1ccccc1Cl [Example 22]

>  <IC50>
1000 to 10000 nM

$$$$
>  <Compound>
O=c1onc(CC2CCCCC2)n1CC1CCCCC1 [Example 129]

>  <IC50>
1000 to 10000 nM

$$$$
>  <Compound>
O=c1onc(CCc2c(F)cccc2Cl)n1Cc1ccc(F)cc1 [Example 145]

>  <IC50>
200 to 1000 nM

$$$$
>  <Compound>
COc1cccc(Cn2c(Cc3c(F)cccc3Cl)noc2=O)c1 [Example 57]

>  <IC50>
1000 to 10000 nM

$$$$
>  <Compound>
Cc1ncccc1Cn1c(Cc2c(F)cccc2Cl)noc1=O [Example 24]

>  <IC50>
> 10000 nM

$$$$
>  <Compound>
O=c1onc(CN2CCC(F)(F)CC2)n1CC1CCCCC1 [Example 222]

>  <IC50>
1000 to 10000 nM

$$$$
>  <Compound>
O=c1onc(CN2CCCC(F)(F)C2)n1Cc1ccc(F)cc1 [Example 225]

>  <IC50>
1000 to 10000 nM

$$$$
>  <Compound>
O=c1onc(Cc2c(F)cccc2Cl)n1Cc1ccc(F)cc1F [Example 61]

>  <IC50>
200 to 1000 nM

$$$$
>  <Compound>
O=c1onc(Cc2ccc(F)cc2)n1Cc1ccc(F)cc1F [Example 53]

>  <IC50>
200 to 1000 nM

$$$$
